# target.desc: T1, TP-23 (also: biotinylated, site not given here)
# T1 construct: also called TP-23 peptide
# T1 peptide: TEDMTEDELREFFSQ
# assay: indirect ELISA, biotinylated 15-mer on streptavidin plate, hybridoma supernatant
Where no end group is shown, it is not given here.
measure.name: binding result

The recorded binding result for ACI-7062-412A7-Ab1 (antibody, IgG2b, V domains shown, also called 412A7B7; clone 9) VH: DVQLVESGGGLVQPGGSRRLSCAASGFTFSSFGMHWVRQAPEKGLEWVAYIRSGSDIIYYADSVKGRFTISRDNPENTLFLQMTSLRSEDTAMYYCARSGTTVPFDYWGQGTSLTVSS VL: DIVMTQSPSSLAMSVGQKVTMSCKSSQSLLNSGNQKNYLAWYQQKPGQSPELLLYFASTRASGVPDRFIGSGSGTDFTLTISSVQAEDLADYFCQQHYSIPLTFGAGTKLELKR is no binding

Lab book: binding result of ACI-7062-416A11-Ab1 (antibody, IgG2a, V domains shown, also called 416A11B3; clone 18) VH: QVTLKESGPGILQSSQTLSLTCSFSGFSLSTYGIGVGWIRQPSGKGLEWLAHIWWNDNKYYNTALKSRLTISKDTSNNQVFLKIASVDTADAATYYCARVYGNLYYFGYWGQGTTLTVSS VL: DVLMTQTPLSLPVSLGDRASISCRSSQSIVHSSGNTYLEWYLQKPGQSPKLLIYKVSNRFSGVPDRFSGSGSGTDFTLKISRVEAEDLGVYYCFQGSRVPTFGAGTKLELKR noted as no binding
